Target: recombinantly expressed His-tagged protein corresponding to amino acids 575-869 of human Tyk2 (Homo sapiens)
Construct: corresponding to amino acids 575-869 of human Tyk2
Sequence (P29597 575-869): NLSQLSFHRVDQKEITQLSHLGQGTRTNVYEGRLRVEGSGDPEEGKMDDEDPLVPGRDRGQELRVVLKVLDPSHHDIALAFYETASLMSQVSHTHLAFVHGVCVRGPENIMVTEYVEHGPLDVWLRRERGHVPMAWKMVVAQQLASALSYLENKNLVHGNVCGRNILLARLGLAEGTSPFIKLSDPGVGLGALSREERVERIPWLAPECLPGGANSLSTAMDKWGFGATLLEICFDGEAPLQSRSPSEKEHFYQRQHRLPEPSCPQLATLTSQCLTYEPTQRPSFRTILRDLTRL
Assay: Probe displacement assay (scintillation proximity, [3H] probe)
Details: 2.5 nM Tyk2 (575-869), 40 nM radiolabeled probe, 30 minutes at room temperature
Parameter: pEC50. Scope: all listed entries.
# pEC50 is unitless: minus log10 of the molar concentration; print number only

Some molecules with known pEC50 results, for comparison:
[[record]]
structure_notation = "CNC(=O)c1cnc(Nc2cc(C(=O)NCCOC)ccn2)cc1Nc1cc(F)cc(F)c1OC"
reported_measurement = 8.19

[[record]]
structure_notation = "CNC(=O)c1cnc(Nc2cc(C)nc(C)n2)cc1Nc1cccc(-c2ccn(C)n2)c1OC"
reported_measurement = 8.46

[[record]]
structure_notation = "CCn1cnc(-c2cccc(Nc3cc(Nc4cc(C)nc(C)n4)ncc3C(=O)NC)c2OC)n1"
reported_measurement = 8.34

[[record]]
structure_notation = "CNC(=O)c1cnc(Nc2ccc(F)cn2)cc1Nc1ccccc1N(C)S(C)(=O)=O"
reported_measurement = 8.38

[[record]]
structure_notation = "CNC(=O)c1cnc(Nc2ccc(F)cn2)cc1Nc1ccc(C(=O)NCCO)cc1OC"
reported_measurement = 8.20

[[record]]
structure_notation = "CNC(=O)c1cnc(Nc2ccc(Cl)cn2)cc1Nc1ccccc1C(N)=O"
reported_measurement = 8.36

[[record]]
structure_notation = "CNC(=O)c1cnc(Nc2ccc(F)cn2)cc1Nc1ccccc1S(=O)(=O)N(C)C"
reported_measurement = 6.74


Q: Quick one: pEC50 of CNC(=O)c1cnc(Nc2ccc(F)cn2)cc1Nc1ccc(-c2ccccc2)cc1 ?
Result: 6.46
